Test system: SR
assay-text: NCI tumour cell line growth inhibition, 48 h
Calls of active or inactive are those of the source. No stated cut-off is given here; in the data, active = GI50 up to about 1.1 µM and inactive = higher.
Labels: active, inactive

{"compound": "CC(=O)Nc1ccc(S(=O)(=O)Nc2cnc3ccccc3n2)cc1", "target-or-system": "SR", "qualitative-label": "inactive"}
{"compound": "COc1ccc2c(c1)c1c(n2CCN2CCCCC2)-c2ccccc2CC1", "target-or-system": "SR", "qualitative-label": "inactive"}
{"compound": "COc1ccccc1NCc1nnc(CCCCCCCCc2nnc(CNc3ccccc3OC)o2)o1", "target-or-system": "SR", "qualitative-label": "inactive"}
{"compound": "CC[N+]1(C)CCC(O)(c2ccccc2)C(C(=O)c2ccccc2)C1 (centres undefined)", "target-or-system": "SR", "qualitative-label": "inactive"}
{"compound": "COC(=O)C[C@@H]1C(C)(C)[C@@H]2O[C@@]34C[C@@H]2C(=O)[C@]1(C)[C@H]3CC[C@@]1(C)[C@H](c2ccoc2)OC(=O)C[C@]14O", "target-or-system": "SR", "qualitative-label": "inactive"}
{"compound": "O=C(O)c1ccc(CNCc2ccccc2)cc1", "target-or-system": "SR", "qualitative-label": "inactive"}
{"compound": "CC(C)CC[C@H](O)[C@@H](C)[C@H]1[C@@H](OC2OC(C)C(O)C(O)C2O)C[C@H]2[C@@H]3CC=C4C[C@@H](O)CC[C@]4(C)[C@H]3[C@@H](O)C[C@]12C (some centres undefined)", "target-or-system": "SR", "qualitative-label": "active"}
{"compound": "COc1ccc(C2(CN(C)C)COc3cc(OC)c(OC)cc3C2=O)cc1OC (centres undefined)", "target-or-system": "SR", "qualitative-label": "inactive"}
{"compound": "COC(=O)CCC(=O)NC1=C(Nc2ccccc2)C(=O)c2ccccc2C1=O", "target-or-system": "SR", "qualitative-label": "inactive"}
{"compound": "O=C1CCC2(c3ccc(F)cc3)Nc3cc(Cl)ccc3N12 (centres undefined)", "target-or-system": "SR", "qualitative-label": "inactive"}
{"compound": "COc1ccc2c(c1)CC1COc3cc(OC)ccc3C1O2 (centres undefined)", "target-or-system": "SR", "qualitative-label": "inactive"}
{"compound": "OC(C/C(=N\\N=C(/CC(O)(C(F)(F)F)C(F)(F)F)c1ccccc1)c1ccccc1)(C(F)(F)F)C(F)(F)F", "target-or-system": "SR", "qualitative-label": "inactive"}
{"compound": "COC(=O)C1C(OS(=O)(=O)O)CCC2CN3CCc4c([nH]c5ccccc45)C3CC21 (centres undefined)", "target-or-system": "SR", "qualitative-label": "inactive"}
{"compound": "CC(=O)C1=C(C)NC2C=CC=CN12 (centres undefined)", "target-or-system": "SR", "qualitative-label": "inactive"}
{"compound": "Cc1cc2c(CC(=O)O)n[nH]c2c(C(=O)O)c1C", "target-or-system": "SR", "qualitative-label": "inactive"}
{"compound": "[Se]=P(c1ccccc1)(c1ccccc1)c1ccc(C(c2ccccc2)=P(c2ccccc2)(c2ccccc2)c2ccccc2)cc1", "target-or-system": "SR", "qualitative-label": "active"}
{"compound": "O=C(Nn1c(-c2ccccc2)nc2ccccc2c1=O)c1ccc([N+](=O)[O-])cc1", "target-or-system": "SR", "qualitative-label": "inactive"}
{"compound": "CCOC(=O)C(NC(=O)c1ccccc1)(N1CCOCC1)C(F)(F)F (centres undefined)", "target-or-system": "SR", "qualitative-label": "inactive"}
{"compound": "CCn1c(SCC(=O)NNC(=S)Nc2ccc(Cl)cc2)nc2ccccc2c1=O", "target-or-system": "SR", "qualitative-label": "inactive"}
